experiment: Half life in human liver microsomes at 3 uM incubated for 5 to 45 min in presence of NADPH by LC-MS analysis; assay type: ADME, Microsome; settings: time 5-45 min
reported metric: half-life at 3 µM (min)
Give your result in min as a bare value.

### Prompt Which half-life at 3 µM value belongs to O=c1[nH]c(N2CCOCC2)nc2ncn(Cc3ccc4ccccc4c3)c12 ?
### Response 110

Continuing:
### Prompt Which half-life at 3 µM value belongs to c1ccc(CNc2nc(N3CCOCC3)nc3ncn(Cc4ccc5ccccc5c4)c23)cc1 ?
### Response 19.3

### Prompt Same question for CCNc1nc(N2CCOCC2)nc2ncn(Cc3ccc4ccccc4c3)c12 please.
### Response 51.3

* * *

Reported MIC99 is given for each of the following compounds.
test system: Mycobacterium tuberculosis; assay: Antitubercular activity against Mycobacterium tuberculosis CNCTC My 331/88 (H37Rv) assessed as inhibition of bacterial growth measured after 21 days of incubation by Sulas semisynthetic medium based assay; assay type: functional; conditions: 504 h, time 21 day

# annotated cases, reported MIC99 shown
### Prompt Which MIC99 value belongs to O=c1[nH]c(N2CCOCC2)nc2c1ncn2Cc1ccc(Cl)c(Cl)c1 ?
### Response > 250 µM

### Prompt Same question for COc1cccc(Cn2cnc3nc(N4CCOCC4)[nH]c(=O)c32)c1 please.
### Response > 500 µM

### Prompt Same question for O=c1[nH]c(NC2CCC2)nc2ncn(Cc3ccc4ccccc4c3)c12 please.
### Response > 500 µM

### Prompt Same question for O=c1[nH]c(N2CCOCC2)nc2c1ncn2Cc1ccc2ccccc2c1 please.
### Response > 250 µM

Next:
### Prompt Which MIC99 value belongs to O=c1[nH]c(N2CCOCC2)nc2ncn(-c3ccsc3)c12 ?
### Response > 500 µM

* * *

test system: Mycobacterium tuberculosis; assay: Antitubercular activity against Mycobacterium tuberculosis CNCTC My 331/88 (H37Rv) assessed as inhibition of bacterial growth measured after 21 days of incubation by Sulas semisynthetic medium based assay; type: functional; details: 504 h, time 21 day
reported metric: MIC99

# annotated cases, reported MIC99 shown
### Prompt Which MIC99 value belongs to CC(C)c1ccc(Cn2cnc3c(=O)[nH]c(N4CCOCC4)nc32)cc1 ?
### Response > 250 µM

### Prompt Same question for CCN(CC)c1nc2ncn(Cc3ccc4ccccc4c3)c2c(=O)[nH]1 please.
### Response > 500 µM

### Prompt Same question for CCNc1nc(N2CCOCC2)nc2ncn(Cc3ccc4ccccc4c3)c12 please.
### Response 1 µM

### Prompt Same question for c1ccc2cc(Cn3cnc4nc(N5CCOCC5)nc(NC5CCC5)c43)ccc2c1 please.
### Response 4 µM

Continuing:
### Prompt Which MIC99 value belongs to O=c1[nH]c(N2CCOCC2)nc2ncn(-c3cccc4c3sc3ccccc34)c12 ?
### Response > 250 µM

### Prompt Same question for CCCNc1nc(N2CCOCC2)nc2ncn(Cc3ccc4ccccc4c3)c12 please.
### Response 4 µM

### Prompt Same question for O=c1[nH]c(N2CCOCC2)nc2c1ncn2Cc1ccc(Cl)cc1 please.
### Response > 500 µM

* * *

tested on: Mycobacterium tuberculosis; assay: Antitubercular activity against Mycobacterium tuberculosis CNCTC My 331/88 (H37Rv) assessed as inhibition of bacterial growth measured after 21 days of incubation by Sulas semisynthetic medium based assay; type: functional; details: 504 h, time 21 day
reported metric: MIC99

### Prompt Which MIC99 value belongs to O=c1[nH]c(N2CCOCC2)nc2ncn(Cc3cccc4ccccc34)c12 ?
### Response > 500 µM

### Prompt Same question for COc1ccc(Cn2cnc3c(=O)[nH]c(N4CCOCC4)nc32)cc1 please.
### Response > 500 µM

### Prompt Same question for COCCN(C)c1nc2ncn(Cc3ccc4ccccc4c3)c2c(=O)[nH]1 please.
### Response > 500 µM

### Prompt Same question for O=c1[nH]c(N2CCOCC2)nc2c1ncn2Cc1ccccc1 please.
### Response > 500 µM

Continuing:
### Prompt Which MIC99 value belongs to O=c1[nH]c(NCCO)nc2ncn(Cc3ccc4ccccc4c3)c12 ?
### Response > 500 µM

### Prompt Same question for S=c1[nH]c(=S)c2c(ncn2Cc2ccc3ccccc3c2)[nH]1 please.
### Response > 500 µM

### Prompt Same question for CN1CCN(c2nc3ncn(Cc4ccc5ccccc5c4)c3c(=O)[nH]2)CC1 please.
### Response 500 µM

### Prompt Same question for CN(C)CCNc1nc(N2CCOCC2)nc2ncn(Cc3ccc4ccccc4c3)c12 please.
### Response 64 µM

### Prompt Same question for O=c1[nH]c(N2CCOCC2)nc2ncn(Cc3ccc(Cl)cc3)c12 please.
### Response > 500 µM

### Prompt Same question for Nc1nc(N2CCOCC2)nc2ncn(Cc3ccc4ccccc4c3)c12 please.
### Response 2 µM

* * *

tested on: Mycobacterium tuberculosis; experiment: Antitubercular activity against Mycobacterium tuberculosis CNCTC My 331/88 (H37Rv) assessed as inhibition of bacterial growth measured after 21 days of incubation by Sulas semisynthetic medium based assay; assay type: functional; details: 504 h, time 21 day
reported metric: MIC99 (µM)
Give your result in µM as a bare value.

# annotated cases, reported MIC99 shown
### Prompt Which MIC99 value belongs to CCSc1nc(N2CCOCC2)nc2ncn(Cc3ccc4ccccc4c3)c12 ?
### Response 4

### Prompt Same question for Cn1c(N2CCOCC2)nc2ncn(Cc3ccc4ccccc4c3)c2c1=O please.
### Response 64

### Prompt Same question for CCCCNc1nc(N2CCOCC2)nc2ncn(Cc3ccc4ccccc4c3)c12 please.
### Response 4

### Prompt Same question for c1ccc2cc(Cn3cnc4nc(N5CCOCC5)nc(NCc5ccncc5)c43)ccc2c1 please.
### Response 8

### Prompt Same question for Clc1nc(N2CCOCC2)nc2ncn(Cc3ccc4ccccc4c3)c12 please.
### Response 16

Next:
### Prompt Which MIC99 value belongs to CCNc1nc(N2CCOCC2)nc2ncn(Cc3ccc4cc(F)ccc4c3)c12 ?
### Response 8

The measured values listed here are drawn from ChEMBL document CHEMBL5620421.
